target: human mu opioid receptor (Homo sapiens, UniProt P35372); construct: expressed in transfected cells; host or cells: CHO cells; test: cell-based; settings: read-out: % max effect, mu opioid receptor
Sequence (P35372 whole entry): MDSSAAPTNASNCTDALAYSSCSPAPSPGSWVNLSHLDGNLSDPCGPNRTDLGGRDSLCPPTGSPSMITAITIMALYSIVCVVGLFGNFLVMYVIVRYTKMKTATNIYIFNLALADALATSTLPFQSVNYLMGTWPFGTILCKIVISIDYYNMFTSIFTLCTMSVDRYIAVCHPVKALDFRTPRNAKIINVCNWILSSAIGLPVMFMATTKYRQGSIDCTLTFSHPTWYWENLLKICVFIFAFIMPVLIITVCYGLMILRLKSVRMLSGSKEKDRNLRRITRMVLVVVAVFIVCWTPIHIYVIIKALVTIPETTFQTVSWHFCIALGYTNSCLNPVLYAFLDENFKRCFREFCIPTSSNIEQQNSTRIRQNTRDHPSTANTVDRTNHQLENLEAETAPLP
Below is a list of entries, each paired with its recorded Emax value.
Just the number please, in %, no unit attached.

Worked cases, answers included:
molecule	reported measurement
COCCOCCOCCOCCOC1CCC2(O)C3Cc4ccc(OC)c5c4C2(CCN3C)C1O5 (stereo not drawn) [α-6-mPEG4-O-hydroxycodone, α-6-mPEG4-O-oxycodone]	109
COCCOCCOCCOCCOCCOCCOCCOC1C=CC2C3Cc4ccc(O)c5c4C2(CCN3C)C1O5 (centres unmarked)	90
COCCOCCOCCOCCOC1C=CC2C3Cc4ccc(O)c5c4C2(CCN3C)C1O5 (centres unmarked)	100

Look up Emax: COCCOC1C=CC2C3Cc4ccc(O)c5c4C2(CCN3C)C1O5 (centres unmarked)
91

State the recorded Emax for this entry: COCCOCCOCCOCCOCCOCCOC1C=CC2C3Cc4ccc(O)c5c4C2(CCN3C)C1O5 (centres unmarked)
98

Please report the recorded Emax for COCCOCCOCCOCCOCCOC1C=CC2C3Cc4ccc(O)c5c4C2(CCN3C)C1O5 (centres unmarked) .
95

Item under review: COCCOCCOCCOC1C=CC2C3Cc4ccc(O)c5c4C2(CCN3C)C1O5 (centres unmarked) . Reported Emax?
100

# input molecule: COCCOCCOC1C=CC2C3Cc4ccc(O)c5c4C2(CCN3C)C1O5 (centres unmarked) ; wanted: its Emax
91
